target: EGFR L858R/T790M/C797S (H1975-clone #25) (Homo sapiens, UniProt P00533, C797S/L858R/T790M); construct: expressed in transfected cells; host or cells: H1975 (clone #25), lentiviral transduction, endogenous EGFR knocked out; assay: EGFR degradation, HTRF total-EGFR assay, H1975-clone #25 (LTC); format: cell-based; settings: H1975-clone #25 L858R/T790M/C797S, 16 h treatment
Sequence (P00533 25-1210 T790M/C797S/L858R): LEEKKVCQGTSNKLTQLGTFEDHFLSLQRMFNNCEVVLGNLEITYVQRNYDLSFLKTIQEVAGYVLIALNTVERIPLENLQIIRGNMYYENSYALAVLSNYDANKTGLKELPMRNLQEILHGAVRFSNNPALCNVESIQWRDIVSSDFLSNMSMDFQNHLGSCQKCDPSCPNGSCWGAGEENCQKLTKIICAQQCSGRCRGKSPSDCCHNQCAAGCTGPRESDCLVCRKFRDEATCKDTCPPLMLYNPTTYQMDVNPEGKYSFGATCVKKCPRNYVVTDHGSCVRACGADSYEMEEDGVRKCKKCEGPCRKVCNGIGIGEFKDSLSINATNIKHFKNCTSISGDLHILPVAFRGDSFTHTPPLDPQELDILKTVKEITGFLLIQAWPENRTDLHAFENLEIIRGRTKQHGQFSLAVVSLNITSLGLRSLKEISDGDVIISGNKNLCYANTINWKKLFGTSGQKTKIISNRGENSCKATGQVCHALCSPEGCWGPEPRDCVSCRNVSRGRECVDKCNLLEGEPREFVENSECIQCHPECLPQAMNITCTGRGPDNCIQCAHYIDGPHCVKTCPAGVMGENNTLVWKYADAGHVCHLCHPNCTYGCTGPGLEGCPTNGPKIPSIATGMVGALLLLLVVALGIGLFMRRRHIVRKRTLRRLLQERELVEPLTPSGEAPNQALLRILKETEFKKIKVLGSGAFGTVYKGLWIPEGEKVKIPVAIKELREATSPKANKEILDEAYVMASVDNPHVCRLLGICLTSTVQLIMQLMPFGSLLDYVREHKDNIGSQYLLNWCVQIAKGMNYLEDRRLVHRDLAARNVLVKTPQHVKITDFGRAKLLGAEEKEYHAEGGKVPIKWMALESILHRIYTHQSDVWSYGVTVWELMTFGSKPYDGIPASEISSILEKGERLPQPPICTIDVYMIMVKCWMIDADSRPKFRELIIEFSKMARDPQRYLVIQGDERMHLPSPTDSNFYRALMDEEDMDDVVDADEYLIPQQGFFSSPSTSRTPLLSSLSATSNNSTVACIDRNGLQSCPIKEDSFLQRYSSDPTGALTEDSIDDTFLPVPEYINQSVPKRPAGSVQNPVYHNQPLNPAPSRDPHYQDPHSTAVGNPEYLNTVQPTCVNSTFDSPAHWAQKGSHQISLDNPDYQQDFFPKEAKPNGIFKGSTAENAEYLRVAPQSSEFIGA
ASSAY METRIC: Degradation H1975 # 25-LTC
// no unit string in output, number only

Req: Return reported Degradation H1975 # 25-LTC; argument: Cc1cc2cc(n1)-c1cnn(C)c1OC[C@H]1C[C@@H](CN3/C(=N/C2=O)Nc2ccc(N4CCN([C@@H]5CCN(c6ccc(C7CCC(=O)NC7=O)nc6C)C[C@@H]5F)CC4)cc23)C1 (stereo partly drawn)
Resp: 91.5

Req: Return reported Degradation H1975 # 25-LTC; argument: Cc1cc2cc(n1)-c1cnn(C)c1OC[C@H]1C[C@@H](CN3/C(=N/C2=O)Nc2ccc(N4C5CCC4CN(C4CCN(c6cc(F)c([C@H]7CCC(=O)NC7=O)c(F)c6)CC4)C5)cc23)C1
Resp: 73.7

Req: Return reported Degradation H1975 # 25-LTC; argument: Cc1cc2cc(n1)-c1cnn(C)c1OC[C@H]1C[C@@H](CN3/C(=N/C2=O)Nc2ccc(N4CCN(C5CCN(c6cnc([C@H]7CCC(=O)NC7=O)cc6C)CC5)C[C@@H]4C)cc23)C1
Resp: 88.8

Req: Return reported Degradation H1975 # 25-LTC; argument: Cc1cc2cc(n1)-c1cnn(C)c1OC[C@H]1C[C@@H](CN3/C(=N/C2=O)Nc2ccc(N4CCN([C@@H]5CCN(c6ccc(C7CCC(=O)NC7=O)nc6C)CC5(F)F)CC4)cc23)C1 (stereo partly drawn)
Resp: 92.1

Req: Return reported Degradation H1975 # 25-LTC; argument: Cc1cc2cc(n1)-c1cnn(C)c1OC[C@H]1C[C@@H](CN3/C(=N/C2=O)Nc2ccc(N4CCN(C5CN(C6CCN(c7cc(F)c([C@H]8CCC(=O)NC8=O)c(F)c7)CC6)C5)CC4)cc23)C1
Resp: 77.3

Req: Return reported Degradation H1975 # 25-LTC; argument: Cc1cc2cc(n1)-c1cnn(C)c1OC[C@H]1C[C@@H](CN3/C(=N/C2=O)Nc2ccc(N4CCN(C5CCN(c6cc(F)c([C@H]7CCC(=O)NC7=O)c(F)c6)CC5)C[C@H]4C)cc23)C1
Resp: 88.6

Req: Return reported Degradation H1975 # 25-LTC; argument: Cc1cc2cc(n1)-c1cnn(C)c1OC[C@H]1C[C@@H](CN3/C(=N/C2=O)Nc2ccc(N(C)C4CC5(C4)CN(C4CCN(c6cc(F)c(C7CCC(=O)NC7=O)c(F)c6)CC4)C5)cc23)C1 (stereo partly drawn)
Resp: 87.0

Req: Return reported Degradation H1975 # 25-LTC; argument: COC[C@H]1CN(c2ccc3c(c2)N2C[C@H]4C[C@@H](COc5c(cnn5C)-c5cc(cc(C)n5)C(=O)/N=C/2N3)C4)CCN1C1CCN(c2ccc(C3CCC(=O)NC3=O)nc2C)CC1 (stereo partly drawn)
Resp: 91.7

Req: Return reported Degradation H1975 # 25-LTC; argument: Cc1cc2cc(n1)-c1cnn(C)c1OC[C@H]1C[C@@H](CN3/C(=N/C2=O)Nc2ccc(N4CCN(C5CCN(c6cnc(C7CCC(=O)NC7=O)cc6C)CC5)C[C@H]4C)cc23)C1 (stereo partly drawn)
Resp: 92.8

Req: Return reported Degradation H1975 # 25-LTC; argument: Cc1cc2cc(n1)-c1cnn(C)c1OC[C@H]1C[C@@H](CN3/C(=N/C2=O)Nc2ccc(N4CCC5(CCN(C6CCN(c7cc(F)c([C@H]8CCC(=O)NC8=O)c(F)c7)CC6)C5)C4)cc23)C1 (stereo partly drawn)
Resp: 72.7

Req: Return reported Degradation H1975 # 25-LTC; argument: Cc1cc2cc(n1)-c1cnn(C)c1OC[C@H]1C[C@@H](CN3/C(=N/C2=O)Nc2ccc(N4CCC(N5C[C@@H]6C[C@H]5CN6c5ccc(C6CCC(=O)NC6=O)nc5C)CC4)cc23)C1 (stereo partly drawn)
Resp: 93.3

Req: Return reported Degradation H1975 # 25-LTC; argument: Cc1cc2cc(n1)-c1cnn(C)c1OC[C@H]1C[C@@H](CN3/C(=N/C2=O)Nc2ccc(N4CCN(CC5CN(c6cnc(C7CCC(=O)NC7=O)cc6C)C5)C[C@@H]4C)cc23)C1 (stereo partly drawn)
Resp: 80.7

----------
target: EGFR Del19/T790M/C797S (H1975-clone #28) (Homo sapiens, UniProt P00533, T790M/C797S, form not given); assay: EGFR degradation, HTRF total-EGFR assay, H1975-clone #28 (DTC); assay type: cell-based; conditions: H1975-clone #28 Del19/T790M/C797S, 16 h treatment
Sequence (P00533 with tags, fused parts or gaps DEL746-750/T790M/C797S, form open): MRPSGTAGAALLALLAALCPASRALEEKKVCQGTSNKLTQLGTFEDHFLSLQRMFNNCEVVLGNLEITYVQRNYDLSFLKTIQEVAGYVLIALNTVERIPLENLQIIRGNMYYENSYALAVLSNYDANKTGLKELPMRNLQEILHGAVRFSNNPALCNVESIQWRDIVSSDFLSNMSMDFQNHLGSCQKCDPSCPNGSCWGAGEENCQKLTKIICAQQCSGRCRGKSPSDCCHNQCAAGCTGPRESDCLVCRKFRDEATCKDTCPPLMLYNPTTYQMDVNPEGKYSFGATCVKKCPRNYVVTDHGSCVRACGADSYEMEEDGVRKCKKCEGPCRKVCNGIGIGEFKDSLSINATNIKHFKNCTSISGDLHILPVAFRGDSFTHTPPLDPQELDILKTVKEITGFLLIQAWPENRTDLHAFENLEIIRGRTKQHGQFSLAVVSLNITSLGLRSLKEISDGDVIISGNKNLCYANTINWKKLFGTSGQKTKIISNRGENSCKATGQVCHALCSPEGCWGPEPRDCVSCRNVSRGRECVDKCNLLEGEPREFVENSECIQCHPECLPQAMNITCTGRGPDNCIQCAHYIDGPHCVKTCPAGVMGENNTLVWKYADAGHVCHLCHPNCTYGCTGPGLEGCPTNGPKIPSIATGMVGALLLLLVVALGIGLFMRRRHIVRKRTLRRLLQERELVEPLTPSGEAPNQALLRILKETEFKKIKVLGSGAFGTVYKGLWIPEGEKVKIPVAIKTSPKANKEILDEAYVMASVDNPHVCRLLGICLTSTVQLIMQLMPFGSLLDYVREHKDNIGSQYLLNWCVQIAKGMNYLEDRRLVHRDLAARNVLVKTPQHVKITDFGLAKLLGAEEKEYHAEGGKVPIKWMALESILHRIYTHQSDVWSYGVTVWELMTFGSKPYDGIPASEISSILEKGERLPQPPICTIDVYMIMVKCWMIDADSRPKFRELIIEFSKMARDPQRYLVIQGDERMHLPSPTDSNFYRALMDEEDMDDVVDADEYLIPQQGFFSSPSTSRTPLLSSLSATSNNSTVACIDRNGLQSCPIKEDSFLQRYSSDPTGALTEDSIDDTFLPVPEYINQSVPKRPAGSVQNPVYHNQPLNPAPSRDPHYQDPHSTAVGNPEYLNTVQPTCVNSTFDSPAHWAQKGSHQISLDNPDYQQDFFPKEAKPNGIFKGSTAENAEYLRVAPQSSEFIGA
ASSAY METRIC: Degradation H1975 # 28 DTC

Req: Return reported Degradation H1975 # 28 DTC; argument: Cc1cc2cc(n1)-c1cnn(C)c1OC[C@H]1C[C@@H](CN3/C(=N/C2=O)Nc2ccc(N4CC5CCC4CN5C4CCN(c5cnc(C6CCC(=O)NC6=O)cc5C)CC4)cc23)C1 (stereo partly shown) [Example 132]
Resp: 77.3

Req: Return reported Degradation H1975 # 28 DTC; argument: Cc1cc2cc(n1)-c1cnn(C)c1OC[C@H]1C[C@@H](CN3/C(=N/C2=O)Nc2ccc(N4CCC(N5CCN(c6cc(F)c([C@H]7CCC(=O)NC7=O)c(F)c6)CC5=O)CC4)cc23)C1 [Example 70]
Resp: 88.7

Req: Return reported Degradation H1975 # 28 DTC; argument: Cc1cc2cc(n1)-c1cnn(C)c1OC[C@H]1C[C@@H](CN3/C(=N/C2=O)Nc2ccc(N4CC5CCC4CN5C4CCN(c5ccc(C6CCC(=O)NC6=O)nc5C)CC4)cc23)C1 (stereo partly shown) [Example 126]
Resp: 80.5

Req: Return reported Degradation H1975 # 28 DTC; argument: Cc1cc2cc(n1)-c1cnn(C)c1OC[C@H]1C[C@@H](CN3/C(=N/C2=O)Nc2ccc(N4CC5(C4)CN(C4CCN(c6ccc(C7CCC(=O)NC7=O)nc6C)CC4)C5)cc23)C1 (stereo partly shown) [Example 113]
Resp: 75.7

Req: Return reported Degradation H1975 # 28 DTC; argument: Cc1cc2cc(n1)-c1cnn(C)c1OC[C@H]1C[C@@H](CN3/C(=N/C2=O)Nc2ccc(N4CCN(C5CCN(c6cnc(C7CCC(=O)NC7=O)cc6C)CC5)CC4)cc23)C1 (stereo partly shown) [Example 40]
Resp: 91.5

Req: Return reported Degradation H1975 # 28 DTC; argument: Cc1cc2cc(n1)-c1cnn(C)c1OC[C@H]1C[C@@H](CN3/C(=N/C2=O)Nc2ccc(N4C[C@H]5C[C@@H]4CN5C4CCN(c5ccc(C6CCC(=O)NC6=O)nc5C)CC4)cc23)C1 (stereo partly shown) [Example 43]
Resp: 75.5

Req: Return reported Degradation H1975 # 28 DTC; argument: COC[C@H]1CN(c2ccc3c(c2)N2C[C@H]4C[C@@H](COc5c(cnn5C)-c5cc(cc(C)n5)C(=O)/N=C/2N3)C4)CCN1C1CCN(c2cc(F)c([C@H]3CCC(=O)NC3=O)c(F)c2)CC1 [Example 27]
Resp: 84.7

Req: Return reported Degradation H1975 # 28 DTC; argument: Cc1cc2cc(n1)-c1cnn(C)c1OC[C@H]1C[C@@H](CN3/C(=N/C2=O)Nc2ccc(N4CCN([C@H]5C[C@@H](Nc6cc(F)c([C@H]7CCC(=O)NC7=O)c(F)c6)C5)CC4)cc23)C1 (single isomer, unassigned) [Example 16]
Resp: 71.5

Req: Return reported Degradation H1975 # 28 DTC; argument: COC[C@H]1CN(c2ccc3c(c2)N2C[C@H]4C[C@@H](COc5c(cnn5C)-c5cc(cc(C)n5)C(=O)/N=C/2N3)C4)CCN1C1CCN(c2cnc(C3CCC(=O)NC3=O)cc2C)CC1 (stereo partly shown) [Example 23]
Resp: 87.0

Req: Return reported Degradation H1975 # 28 DTC; argument: COC[C@H]1CN(c2ccc3c(c2)N2C[C@H]4C[C@@H](COc5c(cnn5C)-c5cc(cc(C)n5)C(=O)/N=C/2N3)C4)CCN1C1CCN(c2ccc(C3CCC(=O)NC3=O)nc2C)CC1 (stereo partly shown) [Example 24]
Resp: 88.0

Req: Return reported Degradation H1975 # 28 DTC; argument: Cc1cc2cc(n1)-c1cnn(C)c1OC[C@H]1C[C@@H](CN3/C(=N/C2=O)Nc2ccc(N4CCC(N5CCN(c6ccc(C7CCC(=O)NC7=O)nc6C)C[C@@H]5C)CC4)cc23)C1 (stereo partly shown) [Example 44]
Resp: 80.7

Req: Return reported Degradation H1975 # 28 DTC; argument: Cc1cc2cc(n1)-c1cnn(C)c1OC[C@H]1C[C@@H](CN3/C(=N/C2=O)Nc2ccc(N4CCN(C5CCN(c6cnc(C7CCC(=O)NC7=O)cc6C)CC5)C[C@H]4C)cc23)C1 (stereo partly shown) [Example 1]
Resp: 91.9

Req: Return reported Degradation H1975 # 28 DTC; argument: Cc1cc2cc(n1)-c1cnn(C)c1OC[C@H]1C[C@@H](CN3/C(=N/C2=O)Nc2ccc(N4CCN(C5CCN(c6ccc(C7CCC(=O)NC7=O)nc6)CC5)CC4=O)cc23)C1 (stereo partly shown) [Example 12]
Resp: 85.3

Req: Return reported Degradation H1975 # 28 DTC; argument: Cc1cc2cc(n1)-c1cnn(C)c1OC[C@H]1C[C@@H](CN3/C(=N/C2=O)Nc2ccc(N4CCN(CCc5ccc(C6CCC(=O)NC6=O)nc5C)CC4)cc23)C1 (stereo partly shown) [Example 82]
Resp: 79.5

Req: Return reported Degradation H1975 # 28 DTC; argument: Cc1cc2cc(n1)-c1cnn(C)c1OC[C@H]1C[C@@H](CN3/C(=N/C2=O)Nc2ccc(N4CCN(C5CCN(c6cc(F)c([C@H]7CCC(=O)NC7=O)c(F)c6)CC5)[C@H](CO)C4)cc23)C1 [Example 30]
Resp: 84.4

Req: Return reported Degradation H1975 # 28 DTC; argument: Cc1cc2cc(n1)-c1cnn(C)c1OC[C@H]1C[C@@H](CN3/C(=N/C2=O)Nc2ccc(N4C5CCC4CN(C4CCN(c6cc(F)c([C@H]7CCC(=O)NC7=O)c(F)c6)CC4)C5)cc23)C1 [Example 128]
Resp: 75.7

Req: Return reported Degradation H1975 # 28 DTC; argument: Cc1cc2cc(n1)-c1cnn(C)c1OC[C@H]1C[C@@H](CN3/C(=N/C2=O)Nc2ccc(N4CCN([C@H]5CCN(c6ccc(C7CCC(=O)NC7=O)nc6C)CC5(F)F)CC4)cc23)C1 (stereo partly shown) [Example 125]
Resp: 89.9

Req: Return reported Degradation H1975 # 28 DTC; argument: Cc1cc2cc(n1)-c1cnn(C)c1OC[C@H]1C[C@@H](CN3/C(=N/C2=O)Nc2ccc(N4CCN(C5CCN(c6ccc(C7CCC(=O)NC7=O)nc6)CC5)CC4)cc23)C1 (stereo partly shown) [Example 15]
Resp: 76.0

Req: Return reported Degradation H1975 # 28 DTC; argument: Cc1cc2cc(n1)-c1cnn(C)c1OC[C@H]1C[C@@H](CN3/C(=N/C2=O)Nc2ccc(N4CCN(CC5CN(c6cnc(C7CCC(=O)NC7=O)cc6C)C5)C[C@@H]4C)cc23)C1 (stereo partly shown) [Example 37]
Resp: 79.4
